Cited source: patent US20260139055A1

The entries below come with measured pKd values attached.
molecular target: canine FcRn complex (FcRn-alpha subunit and beta-microglobulin), His-tagged, biotin labeled (canine); assay: SPR (Biacore), biotin-FcRn captured on SA surface, IgG flowed over, pH 6, 15 C
The quantity pKd is defined as the negative base-10 logarithm of the molar concentration.

Binder	Recorded Measurement
canine IgGB (65) mAb with mutation A426R (antibody, part only; not given: variable domains of unnamed mAb, not shown: another chain or arm of the molecule) constant: ASTTAPSVFPLAPSCGSTSGSTVALACLVSGYFPEPVTVSWNSGSLTSGVHTFPSVLQSSGLYSLSSMVTVPSSRWPSETFTCNVAHPASKTKVDKPVPKRENGRVPRPPDCPKCPAPEMLGGPSVFIFPPKPKDTLLIARTPEVTCVVVDLDPEDPEVQISWFVDGKQMQTAKTQPREEQFNGTYRVVSVLPIGHQDWLKGKQFTCKVNNKALPSPIERTISKARGQAHQPSVYVLPPSREELSKNTVSLTCLIKDFFPPDIDVEWQSNGQQEPESKYRTTPPQLDEDGSYFLYSKLSVDKSRWQRGDTFICRVMHEALHNHYTQESLSHSPGK	8.37

Here is another binder to look at.
Challenge: What measured pKd goes with canine IgGB (65) mAb with mutation Q311D (antibody, part only; not given: Variable domains, not shown: another chain or arm of the molecule) constant: ASTTAPSVFPLAPSCGSTSGSTVALACLVSGYFPEPVTVSWNSGSLTSGVHTFPSVLQSSGLYSLSSMVTVPSSRWPSETFTCNVAHPASKTKVDKPVPKRENGRVPRPPDCPKCPAPEMLGGPSVFIFPPKPKDTLLIARTPEVTCVVVDLDPEDPEVQISWFVDGKQMQTAKTQPREEQFNGTYRVVSVLPIGHDDWLKGKQFTCKVNNKALPSPIERTISKARGQAHQPSVYVLPPSREELSKNTVSLTCLIKDFFPPDIDVEWQSNGQQEPESKYRTTPPQLDEDGSYFLYSKLSVDKSRWQRGDTFICAVMHEALHNHYTQESLSHSPGK ?
Response given: 7.88
